- system.tested: Phenylethanolamine N-methyltransferase (Homo sapiens) (UniProt P11086)
- Sequence (P11086 whole entry, looked up): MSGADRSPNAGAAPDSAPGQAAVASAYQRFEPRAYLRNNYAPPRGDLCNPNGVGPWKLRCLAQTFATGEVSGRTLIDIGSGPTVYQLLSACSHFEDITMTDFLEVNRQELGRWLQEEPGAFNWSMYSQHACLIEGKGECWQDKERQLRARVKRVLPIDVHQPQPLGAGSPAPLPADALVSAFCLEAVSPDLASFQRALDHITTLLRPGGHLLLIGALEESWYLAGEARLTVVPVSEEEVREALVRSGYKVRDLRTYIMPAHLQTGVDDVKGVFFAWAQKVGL
- experiment.notes: Confirmatory Screen for Target Class Profiling of Small Molecule Inhibitors of Methyltransferases (AID 1745852)
- test.settings: MTase-Glo luminescence, SAH detection, recombinant enzyme; measured here: PNMT max response; stronger effect = lower value
Labelling: activity reported below -10% becomes Yes; at or above becomes No.

stdin: Determine if `Cc1ccccc1-c1[nH]nc2ncc(-c3c(C)noc3C)nc12` shows activity strictly lower than -10%.
stdout: Yes

stdin: Determine if `COc1ccc(-c2nnn3c2nc(N2CCOCC2)c2ccccc23)cc1` shows activity strictly lower than -10%.
stdout: Yes

stdin: Determine if `O=C(CCCc1nnc2n3nc(-c4ccccc4)nc3c3ccccc3n12)N1CCC(N2CCCCC2)CC1` shows activity strictly lower than -10%.
stdout: Yes

stdin: Determine if `Cn1c(=O)n(C)c2cc(S(=O)(=O)N3CCN(C4CCCCC4)CC3)ccc21` shows activity strictly lower than -10%.
stdout: No

stdin: Determine if `CCCCNC(=O)c1cccc(-c2cc(N3CCN(C)CC3)nc(N)n2)c1` shows activity strictly lower than -10%.
stdout: No

stdin: Determine if Cc1ccc2c(c1)c(-n1cccc1)c1n2CC(C)(C(=O)NCCC(C)C)N(Cc2cccnc2)C1=O (configuration not stated) shows activity strictly lower than -10%.
stdout: No

The reported measurements were obtained from PubChem BioAssay (NCATS).
